# MEASUREMENT_TARGET: Bifunctional epoxide hydrolase 2 (Homo sapiens)
# ASSAY_EXPLANATION: Inhibition of human sEH assessed as enzyme remaining activity at 10 uM relative to control
The label depends only on Activity: Yes if it is at least 90%, No if it is smaller.

> print(dat)
                                   compound  cat
1  O=C1Nc2ccccc2/C1=N/NS(=O)(=O)c1ccc(C(=O)O)cc1  Yes

Does CC1CCc2c(c(CC3CC(=O)NC(=O)C3)nn2-c2ccccc2)C1 (stereo unspecified) have a reported Activity of at least 90%?
No

And the next one, "O=C1NC(=O)C(CCC(=O)c2ccc3ccccc3c2)C(=O)N1" ?
No

And the next one, "Cc1ccn(C(=O)C2=Cc3ccccc3OC2)c(=N)c1" ?
Yes

And the next one, "CC(=O)c1ccc(NCN2C(=O)c3ccccc3C2=O)cc1" ?
Yes

Measured values drawn from ChEMBL document CHEMBL5528002 for this set.
